target: PKR(wt) (Homo sapiens, UniProt P30613); assay: Luminescence Assay Protocol (Kinase Glo Plus), PKR(Wt/without FBP); type: biochemical; details: without FBP, gmean, read-out: G - AC50 LUM KGP woFBP AC50 μM gmean
Sequence (P30613 whole entry): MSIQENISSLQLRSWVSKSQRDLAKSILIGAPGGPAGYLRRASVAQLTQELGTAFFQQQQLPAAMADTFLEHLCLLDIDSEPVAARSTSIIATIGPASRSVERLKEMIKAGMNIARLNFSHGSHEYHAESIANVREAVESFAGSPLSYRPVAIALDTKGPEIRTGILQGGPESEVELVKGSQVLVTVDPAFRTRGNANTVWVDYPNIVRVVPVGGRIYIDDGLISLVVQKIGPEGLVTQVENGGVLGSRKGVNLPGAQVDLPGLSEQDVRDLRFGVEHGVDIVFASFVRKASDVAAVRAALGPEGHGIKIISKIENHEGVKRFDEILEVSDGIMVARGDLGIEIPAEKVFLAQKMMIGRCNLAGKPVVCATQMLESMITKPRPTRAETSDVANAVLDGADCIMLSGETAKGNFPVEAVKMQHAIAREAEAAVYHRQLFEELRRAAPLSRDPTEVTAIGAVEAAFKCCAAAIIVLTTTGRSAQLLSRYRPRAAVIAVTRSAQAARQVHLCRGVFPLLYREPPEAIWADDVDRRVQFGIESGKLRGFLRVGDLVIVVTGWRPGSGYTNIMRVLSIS
measure.name: AC50

Required: AC50, one value per compound below.
1. C[C@@H](O)[C@@H](C(=O)N1CC2=C(C1)CN(S(=O)(=O)c1ccc(OC(F)F)cc1)C2)c1ccccc1 (racemic)
2. O=C(C(CO)c1ccccn1)N1CC2=C(C1)CN(S(=O)(=O)c1ccc(OC(F)F)cc1)C2 (single isomer, unassigned)
3. O=C(C1CCCOC1)N1CC2=C(C1)CN(S(=O)(=O)c1ccccn1)C2 (single isomer, unassigned) [Example 45]

Response line:
1: ≤ 0.1 µM; 2: ≤ 0.1 µM; 3: 0.1 to 1 µM

###

So I've got a bunch of compounds here, and I need their AC50 values.
Biological target: PKR(R510Q) (Homo sapiens, UniProt P30613, R510Q)
Sequence (P30613 whole entry R510Q): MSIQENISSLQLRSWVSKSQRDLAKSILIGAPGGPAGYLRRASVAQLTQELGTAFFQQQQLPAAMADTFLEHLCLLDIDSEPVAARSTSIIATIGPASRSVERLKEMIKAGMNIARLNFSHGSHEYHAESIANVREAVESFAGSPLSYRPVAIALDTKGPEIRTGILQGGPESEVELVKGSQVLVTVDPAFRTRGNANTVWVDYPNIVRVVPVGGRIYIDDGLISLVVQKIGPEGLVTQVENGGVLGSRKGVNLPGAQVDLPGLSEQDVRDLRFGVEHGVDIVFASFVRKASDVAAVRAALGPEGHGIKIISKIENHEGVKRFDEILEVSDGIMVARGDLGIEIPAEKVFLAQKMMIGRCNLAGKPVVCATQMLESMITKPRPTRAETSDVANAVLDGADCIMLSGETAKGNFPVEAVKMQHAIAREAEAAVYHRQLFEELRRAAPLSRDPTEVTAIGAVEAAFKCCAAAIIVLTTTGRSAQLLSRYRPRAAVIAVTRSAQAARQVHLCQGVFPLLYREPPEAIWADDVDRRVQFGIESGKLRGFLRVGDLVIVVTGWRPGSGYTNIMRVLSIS
Test: Luminescence Assay Protocol (Kinase Glo Plus), PKR(R510Q/without FBP)
Type: biochemical
Conditions: PKRR510Q, without FBP, gmean; read-out: D - AC50 LUM KGP woFBP AC50 μM gmean
Experimental: Example 47: PKR(Wt/without FBP), PKR(G332S/with FBP), PKR(R510Q/without FBP) The phosphorylation of Adenosine-5′-diphosphate (ADP) by various mutants of PKR was determined by the Kinase Glo Plus Assay (Promega) in the presence or absence of FBP [D-Fructose-1,6-diphosphate; BOC Sciences, CAS: 81028-91-3] as follows. […] Enzyme and PEP [Phospho(enol) pyruvic acid] were added at 2× to all wells of an assay-ready plate containing serial dilutions of test compounds or DMSO vehicle. […]

Consider the reported AC50 for these compounds:
{"compound": "O=C(C1CCCOC1)N1CC2=C(C1)CN(S(=O)(=O)c1ccc3c(c1)NCCO3)C2 (single isomer, unassigned) [Example 33]", "measure.name": "AC50", "endpoint.value": "1 to 40 µM"}
{"compound": "COCC1(C(=O)N2CC3=C(C2)CN(S(=O)(=O)c2ccc4c(c2)NCCO4)C3)CC1 [Example 36]", "measure.name": "AC50", "endpoint.value": "1 to 40 µM"}
{"compound": "O=C([C@H](CO)c1ccccc1)N1CC2=C(C1)CN(S(=O)(=O)c1ccc3c(c1)NCCO3)C2 [Example 35]", "measure.name": "AC50", "endpoint.value": "≤ 0.1 µM"}
{"compound": "C[C@@H](O)[C@H](C(=O)N1CC2=C(C1)CN(S(=O)(=O)c1ccc(OC(F)F)cc1)C2)c1ccccc1 (racemic) [Example 27]", "measure.name": "AC50", "endpoint.value": "0.1 to 1 µM"}
{"compound": "O=C(C(CO)c1ccccc1)N1CC2=C(C1)CN(S(=O)(=O)c1ccc(OC(F)F)cc1)C2 (stereo not shown) [Example 49]", "measure.name": "AC50", "endpoint.value": "≤ 0.1 µM"}
{"compound": "O=C([C@@H](CO)c1ccccc1)N1CC2=C(C1)CN(S(=O)(=O)c1ccc3ncsc3c1)C2 [Example 30]", "measure.name": "AC50", "endpoint.value": "0.1 to 1 µM"}

Continue with the next compound.
Prompt line: GET /values?readout=AC50&system=PKR(R510Q) (Homo sapiens, UniProt P30613, R510Q)&item= O=C(C(CO)c1ccccc1)N1CC2=C(C1)CN(S(=O)(=O)c1ccc3c(c1)OCCO3)C2 (stereo not shown) [Example 18]
Response line: ≤ 0.1 µM

###

target: PKR(G332S) (Homo sapiens, UniProt P30613, G332S); assay: Luminescence Assay Protocol (Kinase Glo Plus), PKR(G332S/with FBP); type: biochemical; settings: PKRG332S, with FBP, gmean; read-out: A - AC50 LUM KGP FBP AC50 μM gmean
Sequence (P30613 whole entry G332S): as the sequence (P30613 whole entry R510Q) above, with G332S, Q510R counted along it
measure.name: AC50

{"compound": "COCCC(=O)N1CC2=C(C1)CN(S(=O)(=O)c1ccc3c(c1)OCCO3)C2 [Example 57]", "measure.name": "AC50", "endpoint.value": "≤ 0.1 µM"}
{"compound": "O=C([C@H](CO)c1ccccc1)N1CC2=C(C1)CN(S(=O)(=O)c1ccccn1)C2 [Example 51]", "measure.name": "AC50", "endpoint.value": "0.1 to 1 µM"}
{"compound": "O=C(C1CCCOC1)N1CC2=C(C1)CN(S(=O)(=O)c1cnc3c(c1)OCCO3)C2 (single isomer, unassigned) [Example 5]", "measure.name": "AC50", "endpoint.value": "1 to 40 µM"}
{"compound": "O=C(C1CCCOC1)N1CC2=C(C1)CN(S(=O)(=O)c1ccccn1)C2 (single isomer, unassigned) [Example 44]", "measure.name": "AC50", "endpoint.value": "1 to 40 µM"}
{"compound": "O=C(C1CCCOC1)N1CC2=C(C1)CN(S(=O)(=O)c1ccc3ncsc3c1)C2 (stereo not shown) [Example 15]", "measure.name": "AC50", "endpoint.value": "> 40 µM"}
{"compound": "O=C([C@H]1CCOC1)N1CC2=C(C1)CN(S(=O)(=O)c1ccc(OC(F)F)cc1)C2 [Example 16]", "measure.name": "AC50", "endpoint.value": "0.1 to 1 µM"}
{"compound": "O=C(C(CO)c1ccccc1)N1CC2=C(C1)CN(S(=O)(=O)c1ccc(OC(F)F)cc1)C2 (stereo not shown) [Example 49]", "measure.name": "AC50", "endpoint.value": "≤ 0.1 µM"}
{"compound": "O=C([C@H](CO)c1ccccc1)N1CC2=C(C1)CN(S(=O)(=O)c1ccc3c(c1)NCCO3)C2 [Example 35]", "measure.name": "AC50", "endpoint.value": "≤ 0.1 µM"}
{"compound": "CC(C)(CO)C(=O)N1CC2=C(C1)CN(S(=O)(=O)c1ccc3ncsc3c1)C2 [Example 19]", "measure.name": "AC50", "endpoint.value": "> 40 µM"}
{"compound": "CC(C)(O)[C@@H](C(=O)N1CC2=C(C1)CN(S(=O)(=O)c1ccc(OC(F)F)cc1)C2)c1ccccc1 [Example 28]", "measure.name": "AC50", "endpoint.value": "≤ 0.1 µM"}

Would you be so kind as to report AC50 for each listed record?
1. O=C(C(CO)c1ccccn1)N1CC2=C(C1)CN(S(=O)(=O)c1ccc(OC(F)F)cc1)C2 (single isomer, unassigned) [Example 41]
2. O=C([C@@H](CO)c1ccccc1)N1CC2=C(C1)CN(S(=O)(=O)c1ccc3ncsc3c1)C2 [Example 30]
3. O=C([C@@H]1CCOC1)N1CC2=C(C1)CN(S(=O)(=O)c1ccc(OC(F)F)cc1)C2 [Example 14]
4. O=C(C(CO)c1ccccc1)N1CC2=C(C1)CN(S(=O)(=O)c1ccc3ncsc3c1)C2 (stereo not shown) [Example 48]

Response line:
1: ≤ 0.1 µM; 2: 0.1 to 1 µM; 3: 0.1 to 1 µM; 4: ≤ 0.1 µM

For the 6 compounds below, give their AC50 values.
1. C[C@@H](O)[C@H](C(=O)N1CC2=C(C1)CN(S(=O)(=O)c1ccc(OC(F)F)cc1)C2)c1ccccc1 (racemic) [Example 27]
2. O=C(C1CCCOC1)N1CC2=C(C1)CN(S(=O)(=O)c1ccccn1)C2 (single isomer, unassigned) [Example 45]
3. COCCC(=O)N1CC2=C(C1)CN(S(=O)(=O)c1ccc3occc3c1)C2 [Example 58]
4. O=C(C(CO)c1ccccn1)N1CC2=C(C1)CN(S(=O)(=O)c1cnc3c(c1)OCCO3)C2 (single isomer, unassigned) [Example 3]
5. COCC1(C(=O)N2CC3=C(C2)CN(S(=O)(=O)c2ccc4c(c2)NCCO4)C3)CC1 [Example 36]
6. C[C@@H](O)[C@@H](C(=O)N1CC2=C(C1)CN(S(=O)(=O)c1ccc(OC(F)F)cc1)C2)c1ccccc1 (racemic) [Example 26]

Response line:
1: ≤ 0.1 µM; 2: 0.1 to 1 µM; 3: ≤ 0.1 µM; 4: 1 to 40 µM; 5: > 40 µM; 6: ≤ 0.1 µM

Can you give me AC50 for all of these, one by one?
1. O=C([C@H](CO)c1ccccc1)N1CC2=C(C1)CN(S(=O)(=O)c1ccc(C(F)(F)F)nc1)C2 [Example 52]
2. O=C(C1COCCN1)N1CC2=C(C1)CN(S(=O)(=O)c1ccc3ncsc3c1)C2 (stereo not shown) [Example 56]
3. CC(C)(CO)C(=O)N1CC2=C(C1)CN(S(=O)(=O)c1ccc3c(c1)NCCO3)C2 [Example 37]
4. O=C(C(CO)c1ccccc1)N1CC2=C(C1)CN(S(=O)(=O)c1ccc3c(c1)OCCO3)C2 (stereo not shown) [Example 18]

Response line:
1. 0.1 to 1 µM
2. > 40 µM
3. > 40 µM
4. > 40 µM

###

molecular target: PKR(R510Q) (Homo sapiens, UniProt P30613, R510Q); test: Luminescence Assay Protocol (Kinase Glo Plus), PKR(R510Q/without FBP); assay type: biochemical; details: PKRR510Q, without FBP, compound 1.54 μM; read-out: F - AC50 LUM KGP woFBP % Fold @ 1.54 μM mean
Consider the following compounds; for each one, report its activation at 1.54 µM.

# example entries with known answers
{"compound": "O=C(C1CCOC1)N1CC2=C(C1)CN(S(=O)(=O)c1ccc3c(c1)NCCO3)C2 (stereo not drawn) [Example 39]", "measure.name": "activation at 1.54 µM", "endpoint.value": "250 to 500%"}
{"compound": "O=C(C(CO)c1ccccc1)N1CC2=C(C1)CN(S(=O)(=O)c1ccc3ncsc3c1)C2 (stereo not drawn) [Example 48]", "measure.name": "activation at 1.54 µM", "endpoint.value": "250 to 500%"}
{"compound": "COCC1(C(=O)N2CC3=C(C2)CN(S(=O)(=O)c2ccc4c(c2)NCCO4)C3)CC1 [Example 36]", "measure.name": "activation at 1.54 µM", "endpoint.value": "75 to 250%"}
{"compound": "O=C([C@H](CO)c1ccccc1)N1CC2=C(C1)CN(S(=O)(=O)c1ccc3c(c1)NCCO3)C2 [Example 35]", "measure.name": "activation at 1.54 µM", "endpoint.value": "250 to 500%"}
{"compound": "CN1CCOc2ccc(S(=O)(=O)N3CC4=C(CN(C(=O)C5CCOC5)C4)C3)cc21 (stereo not drawn) [Example 47]", "measure.name": "activation at 1.54 µM", "endpoint.value": "75 to 250%"}
{"compound": "C[C@@H](O)[C@H](C(=O)N1CC2=C(C1)CN(S(=O)(=O)c1ccc(OC(F)F)cc1)C2)c1ccccc1 (racemic) [Example 27]", "measure.name": "activation at 1.54 µM", "endpoint.value": "250 to 500%"}

Could you tell me activation at 1.54 µM for each of these compounds? They are listed below.
1. O=C(C(CO)c1ccccc1)N1CC2=C(C1)CN(S(=O)(=O)c1ccc(OC(F)F)cc1)C2 (stereo not drawn) [Example 49]
2. O=C(C1CCCOC1)N1CC2=C(C1)CN(S(=O)(=O)c1ccc3ncsc3c1)C2 (stereo not drawn) [Example 15]
3. O=C([C@H]1CCOC1)N1CC2=C(C1)CN(S(=O)(=O)c1ccc(OC(F)F)cc1)C2 [Example 16]
4. C[C@@H](O)[C@@H](C(=O)N1CC2=C(C1)CN(S(=O)(=O)c1ccc(OC(F)F)cc1)C2)c1ccccc1 (racemic) [Example 26]
5. COCCC(=O)N1CC2=C(C1)CN(S(=O)(=O)c1ccc3c(c1)N(C)CCO3)C2 [Example 53]
6. COCCC(=O)N1CC2=C(C1)CN(S(=O)(=O)c1ccc3occc3c1)C2 [Example 58]
7. O=C(C1CCCOC1)N1CC2=C(C1)CN(S(=O)(=O)c1cnc3c(c1)OCCO3)C2 (single isomer, unassigned) [Example 5]
8. CC(C)(CO)C(=O)N1CC2=C(C1)CN(S(=O)(=O)c1ccc3ncsc3c1)C2 [Example 19]

Response line:
["250 to 500%", "75 to 250%", "75 to 250%", "250 to 500%", "75 to 250%", "75 to 250%", "75 to 250%", "75 to 250%"]

Dear colleague, could you send me activation at 1.54 µM for each of the items below? Thanks.
1. O=C([C@@H](CO)c1ccccc1)N1CC2=C(C1)CN(S(=O)(=O)c1cnc3c(c1)OCCO3)C2 (single isomer, unassigned) [Example 2]
2. O=C(C1CCCOC1)N1CC2=C(C1)CN(S(=O)(=O)c1ccccn1)C2 (single isomer, unassigned) [Example 44]

Response line:
1. 75 to 250%
2. 75 to 250%

State the recorded activation at 1.54 µM for every item in the following list.
1. O=C(CCO)N1CC2=C(C1)CN(S(=O)(=O)c1ccc(OC(F)F)cc1)C2 [Example 54]
2. COc1ccc(S(=O)(=O)N2CC3=C(CN(C(=O)CCO)C3)C2)cc1 [Example 40]
3. O=C([C@@H]1CCOC1)N1CC2=C(C1)CN(S(=O)(=O)c1ccc3ncsc3c1)C2 [Example 20]
4. CN1CCOc2ccc(S(=O)(=O)N3CC4=C(CN(C(=O)C(CO)c5ccccc5)C4)C3)cc21 (stereo not drawn) [Example 46]
5. O=C(C1COCCN1)N1CC2=C(C1)CN(S(=O)(=O)c1ccc3ncsc3c1)C2 (stereo not drawn) [Example 56]

Response line:
1. 75 to 250%
2. 75 to 250%
3. 75 to 250%
4. 75 to 250%
5. 75 to 250%

List activation at 1.54 µM for every entry below, keeping the order given.
1. O=C(C(CO)c1ccccc1)N1CC2=C(C1)CN(S(=O)(=O)c1ccc3c(c1)OCCO3)C2 (stereo not drawn) [Example 18]
2. O=C(C(CO)c1ccccn1)N1CC2=C(C1)CN(S(=O)(=O)c1ccc(OC(F)F)cc1)C2 (single isomer, unassigned) [Example 41]
3. O=C(C1COc2ccccc21)N1CC2=C(C1)CN(S(=O)(=O)c1ccc3ncsc3c1)C2 (stereo not drawn) [Example 43]
4. O=C([C@@H]1CCOC1)N1CC2=C(C1)CN(S(=O)(=O)c1ccc(OC(F)F)cc1)C2 [Example 14]
5. O=C(C(CO)c1ccccn1)N1CC2=C(C1)CN(S(=O)(=O)c1cnc3c(c1)OCCO3)C2 (single isomer, unassigned) [Example 4]
6. O=C([C@H](CO)c1ccccc1)N1CC2=C(C1)CN(S(=O)(=O)c1cccnc1)C2 [Example 50]
7. CC(C)(O)[C@@H](C(=O)N1CC2=C(C1)CN(S(=O)(=O)c1ccc(OC(F)F)cc1)C2)c1ccccc1 [Example 28]

Response line:
["75 to 250%", "250 to 500%", "250 to 500%", "75 to 250%", "75 to 250%", "250 to 500%", "75 to 250%"]

Provide activation at 1.54 µM for all items below, preserving their order.
1. O=C([C@H](CO)c1ccccc1)N1CC2=C(C1)CN(S(=O)(=O)c1ccc(OC(F)F)cc1)C2 [Example 31]
2. O=C([C@H](CO)c1ccccc1)N1CC2=C(C1)CN(S(=O)(=O)c1ccccn1)C2 [Example 51]

Response line:
1. 250 to 500%
2. 250 to 500%
